pIC50: −log10 of the molar value.
Measured pIC50 on UniProt O75116 follows.

Reference set, count: 2
                                   compound   assay_value
0  NC(c1ccc(C(=O)Nc2ccncc2)cc1)C1CCCN1C(=O)Cc1ccc(F)c(Cl)c1 (stereo not drawn)  6.30 to 7.30
1  NC(CNC(=O)C1(c2cccs2)CC1)c1ccc(C(=O)Nc2ccncc2)cc1 (stereo not drawn)  6.30 to 7.30

**Q:** Identify the measured pIC50 of NC(CNC(=O)Cc1ccc2c(c1)OCO2)c1ccc(C(=O)Nc2ccncc2)cc1 (stereo not drawn) for UniProt O75116.
**A:** 6.30 to 7.30

**Q:** Quick check: pIC50 on UniProt O75116, item N[C@H](CC(=O)N[C@H]1CCCc2ccccc21)c1ccc(C(=O)Nc2ccncc2)cc1 ?
**A:** 6.30 to 7.30

**Q:** pIC50 of N[C@@H](CC(=O)NC1COc2ccccc21)c1ccc(C(=O)Nc2ccncc2)cc1 (stereo partly drawn) on UniProt O75116?
**A:** 6.30 to 7.30

**Q:** Lab note: need pIC50 with UniProt O75116 for entry NC(CNC(=O)c1cccc2ccccc12)c1ccc(C(=O)Nc2ccncc2)cc1 (stereo not drawn) , please look it up.
**A:** 5.30 to 6.30

**Q:** # value lookup — system UniProt O75116, readout pIC50, item CONC(=O)CC(N)c1ccc(C(=O)Nc2ccncc2)cc1 (stereo not drawn)
**A:** 6.30 to 7.30

###

Measured IC50, listed per entry for reference.
biological target: ROCK2 (human) (UniProt O75116)
Sequence (O75116 whole entry, looked up): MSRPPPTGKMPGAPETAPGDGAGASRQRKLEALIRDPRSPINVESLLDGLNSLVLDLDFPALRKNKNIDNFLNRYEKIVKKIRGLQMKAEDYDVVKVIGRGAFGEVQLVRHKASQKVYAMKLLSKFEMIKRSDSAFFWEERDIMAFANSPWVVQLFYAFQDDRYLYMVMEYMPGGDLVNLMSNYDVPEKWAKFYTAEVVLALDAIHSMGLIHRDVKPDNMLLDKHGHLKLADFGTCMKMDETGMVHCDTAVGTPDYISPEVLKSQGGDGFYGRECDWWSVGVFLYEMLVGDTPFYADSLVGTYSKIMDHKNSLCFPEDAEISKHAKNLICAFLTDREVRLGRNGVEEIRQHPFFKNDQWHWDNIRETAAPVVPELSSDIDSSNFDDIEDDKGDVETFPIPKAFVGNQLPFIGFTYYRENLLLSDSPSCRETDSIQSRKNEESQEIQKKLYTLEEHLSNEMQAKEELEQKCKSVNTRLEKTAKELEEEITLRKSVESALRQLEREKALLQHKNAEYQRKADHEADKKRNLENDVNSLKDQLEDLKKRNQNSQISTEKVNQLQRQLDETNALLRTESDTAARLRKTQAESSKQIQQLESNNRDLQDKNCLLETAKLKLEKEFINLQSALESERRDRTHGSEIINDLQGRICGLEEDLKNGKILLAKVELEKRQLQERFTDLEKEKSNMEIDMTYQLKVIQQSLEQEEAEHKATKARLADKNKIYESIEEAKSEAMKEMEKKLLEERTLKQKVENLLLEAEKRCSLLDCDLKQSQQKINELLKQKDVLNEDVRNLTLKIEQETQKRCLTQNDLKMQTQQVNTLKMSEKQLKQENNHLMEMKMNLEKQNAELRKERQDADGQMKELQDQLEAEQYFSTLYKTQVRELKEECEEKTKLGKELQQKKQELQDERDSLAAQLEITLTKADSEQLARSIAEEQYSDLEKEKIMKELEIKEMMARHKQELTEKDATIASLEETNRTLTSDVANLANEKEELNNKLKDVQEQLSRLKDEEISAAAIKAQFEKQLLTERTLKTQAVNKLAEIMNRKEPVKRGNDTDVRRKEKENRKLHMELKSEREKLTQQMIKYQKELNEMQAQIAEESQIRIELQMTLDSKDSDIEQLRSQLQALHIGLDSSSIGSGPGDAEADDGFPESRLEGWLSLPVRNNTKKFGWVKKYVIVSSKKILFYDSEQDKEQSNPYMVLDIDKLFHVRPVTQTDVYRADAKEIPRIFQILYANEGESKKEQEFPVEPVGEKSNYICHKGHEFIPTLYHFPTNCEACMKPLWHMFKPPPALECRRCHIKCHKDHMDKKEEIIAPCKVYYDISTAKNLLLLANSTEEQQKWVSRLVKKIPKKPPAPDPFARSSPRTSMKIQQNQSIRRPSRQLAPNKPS

Below: 5 compounds and their reported IC50.
>>> df
                                   compound  reported_endpoint     assay_value
0  NC(c1ccc(C(=O)Nc2ccncc2)cc1)C1CCCN1C(=O)Cc1c(F)cccc1F (configuration not stated)               IC50  500 to 5000 nM
1  COc1ccc(C2(C(=O)N(C)CC(N)c3ccc(C(=O)Nc4ccncc4)cc3)CC2)cc1 (configuration not stated)               IC50  500 to 5000 nM
2  NC(CNC(=O)Nc1ccc(Cl)cc1)c1ccc(C(=O)Nc2ccncc2)cc1 (configuration not stated)               IC50    50 to 500 nM
3  NC(CC(=O)NCCc1ccccc1F)c1ccc(C(=O)Nc2ccncc2)cc1 (configuration not stated)               IC50    50 to 500 nM
4  CN(CC(N)c1ccc(C(=O)Nc2ccncc2)cc1)C(=O)Cc1ccccc1 (configuration not stated)               IC50  500 to 5000 nM

**Q:** Enter reported IC50 observed with ROCK2 (human) (UniProt O75116) for CC(C)(C)ON=Cc1cccc(C(=O)NCC(N)c2ccc(C(=O)Nc3ccncc3)cc2)c1 (configuration not stated)
**A:** 500 to 5000 nM

**Q:** Field: IC50 (ROCK2 (human) (UniProt O75116)). Entry: NC(CC(=O)NC(Cc1ccccc1)c1ccccc1)c1ccc(C(=O)Nc2ccncc2)cc1 (configuration not stated)
**A:** 50 to 500 nM

**Q:** # get_value(readout= IC50, system= ROCK2 (human) (UniProt O75116)) for CN(CC(N)c1ccc(C(=O)Nc2ccncc2)cc1)C(=O)Cc1cccc(F)c1 (configuration not stated)
**A:** 500 to 5000 nM

**Q:** Lab note: need IC50 for NC(c1ccc(C(=O)Nc2ccncc2)cc1)C1CCCN1C(=O)C1(c2ccc(Cl)cc2)CCC1 (configuration not stated) on ROCK2 (human) (UniProt O75116), anyone have it?
**A:** 500 to 5000 nM

**Q:** Recorded IC50 for CC(C)C(C)NC(=O)CC(N)c1ccc(C(=O)Nc2ccncc2)cc1 (configuration not stated) with ROCK2 (human) (UniProt O75116), please?
**A:** 50 to 500 nM

**Q:** State its IC50 on ROCK2 (human) (UniProt O75116): CC(C)(C(=O)N1CCCC1C(N)c1ccc(C(=O)Nc2ccncc2)cc1)c1ccc(Cl)cc1 (configuration not stated)
**A:** 500 to 5000 nM

**Q:** Can you look up IC50 on ROCK2 (human) (UniProt O75116) for NC(CC(=O)N[C@@H]1CCCc2ccccc21)c1ccc(C(=O)Nc2ccncc2)cc1 (some centres not stated) ?
**A:** 50 to 500 nM

###

pIC50: −log10 of the molar value.
Hi! I'm sharing some pIC50 results obtained with ROCK2 (human) (UniProt O75116).

See these solved cases before continuing.
>>> df
                                   compound                  assayed_target   assay_value
0  NC(CNC(=O)Cc1csc(-c2ccccc2)n1)c1ccc(C(=O)Nc2ccncc2)cc1 (stereo not given)  ROCK2 (human) (UniProt O75116)  6.30 to 7.30
1  CN(CC(N)c1ccc(C(=O)Nc2ccncc2)cc1)C(=O)C(C)(C)c1ccc(Cl)cc1 (stereo not given)  ROCK2 (human) (UniProt O75116)  5.30 to 6.30
2  NC(CNC(=O)CCC1CCCCC1)c1ccc(C(=O)Nc2ccncc2)cc1 (stereo not given)  ROCK2 (human) (UniProt O75116)  6.30 to 7.30
3  NC(CC(=O)NCc1ccc(F)c(C(F)(F)F)c1)c1ccc(C(=O)Nc2ccncc2)cc1 (stereo not given)  ROCK2 (human) (UniProt O75116)  6.30 to 7.30

**Q:** Given the entry NC(CNC(=O)[C@@H]1CCC(=O)N1)c1ccc(C(=O)Nc2ccncc2)cc1 (stereo not given in full) , report its measured pIC50.
**A:** 5.30 to 6.30

**Q:** Consider the compound NC(CC(=O)N[C@H]1CCCc2ccccc21)c1ccc(C(=O)Nc2ccncc2)cc1 (stereo not given in full) and give its measured pIC50.
**A:** 6.30 to 7.30

**Q:** What does the record list as pIC50 for COc1ccc(CC(=O)N2CCCC2C(N)c2ccc(C(=O)Nc3ccncc3)cc2)cc1F (stereo not given) ?
**A:** 5.30 to 6.30

**Q:** Item under review: CC(C)(C(=O)NCC(N)c1ccc(C(=O)Nc2ccncc2)cc1)c1cccs1 (stereo not given) . Reported pIC50?
**A:** 6.30 to 7.30

**Q:** Fill in: pIC50 of NC(CNC(=O)c1cccc(Cl)c1)c1ccc(C(=O)Nc2ccncc2)cc1 (stereo not given) is ___
**A:** 5.30 to 6.30

**Q:** // pIC50 lookup, key: NC(CNC(=O)C1(c2ccc(F)c(F)c2)CCC1)c1ccc(C(=O)Nc2ccncc2)cc1 (stereo not given)
**A:** 6.30 to 7.30

**Q:** Reported pIC50, compound NC(CNC(=O)c1ccc2c(c1)OCO2)c1ccc(C(=O)Nc2ccncc2)cc1 (stereo not given) : ____
**A:** 6.30 to 7.30

**Q:** Please look up its pIC50: CN(C)CCNC(=O)CC(N)c1ccc(C(=O)Nc2ccncc2)cc1 (stereo not given)
**A:** 6.30 to 7.30

**Q:** Recorded pIC50 of NC(CNC(=O)c1ccc(F)cc1)c1ccc(C(=O)Nc2ccncc2)cc1 (stereo not given) , please.
**A:** 5.30 to 6.30

**Q:** What value of measured pIC50 is listed for CN(CC(N)c1ccc(C(=O)Nc2ccncc2)cc1)C(=O)C1CCSc2ccccc21 (stereo not given) ?
**A:** 4.30 to 5.30

**Q:** Data request, read-out pIC50, for Cn1cccc1C(=O)NCC(N)c1ccc(C(=O)Nc2ccncc2)cc1 (stereo not given)
**A:** 5.30 to 6.30

###

These compounds were tested on ROCK2 (human) (UniProt O75116); pIC50 is the recorded read-out.
pIC50: −log10 of the molar value.

These recorded examples may help you get a feel for the data.
                                   compound  reported_endpoint   assay_value
0  NC(CNC(=O)C1(c2ccc(F)cc2F)CC1)c1ccc(C(=O)Nc2ccncc2)cc1 (stereo not given)              pIC50  6.30 to 7.30
1  NC(CC(=O)NCc1cc(Cl)cc(Cl)c1)c1ccc(C(=O)Nc2ccncc2)cc1 (stereo not given)              pIC50  6.30 to 7.30
2  CN(CC(N)c1ccc(C(=O)Nc2ccncc2)cc1)C(=O)C1(c2ccc(F)cc2)CC1 (stereo not given)              pIC50  5.30 to 6.30

**Q:** Please report the recorded pIC50 for Cc1ccc(C(=O)NCC(N)c2ccc(C(=O)Nc3ccncc3)cc2)s1 (stereo not given) .
**A:** 5.30 to 6.30

**Q:** Could you share which pIC50 value was measured for CCCCCCCCC(=O)NCC(N)c1ccc(C(=O)Nc2ccncc2)cc1 (stereo not given) ?
**A:** 6.30 to 7.30
